- System: Mus musculus
- TEST_NAME: Effective dose against convulsions induced by maximal electroshock (MES) after intraperitoneal administration in experiment 2
- Type: functional
- PROTOCOL_CONDITIONS: ip
List of ED50 values.
QUANTITY: ED50 (mg/kg)

NC(=O)N1c2ccccc2C=Cc2ccccc21 [CARBAMAZEPINE] ... 8.8
CCCCCCCc1cccc(N2CCNCC2)n1 ... 6.4
CCCCCCc1cccc(N2CCNCC2)n1 ... 16
CCCCCCCCCc1cccc(N2CCNCC2)n1 ... 7.8

----------
Recorded ED50 values for a group of molecules are listed next.
- Test system: Mus musculus
- TEST_NAME: Effective dose against convulsions induced by maximal electroshock (MES) after intraperitoneal administration in experiment 1
- Type: functional
- PROTOCOL_CONDITIONS: ip
QUANTITY: ED50 (mg/kg)

CCCCCCCc1cccc(N2CCNCC2)n1 ... 8.8
NC(=O)N1c2ccccc2C=Cc2ccccc21 [CARBAMAZEPINE] ... 9.8
CCCCCCCCCc1cccc(N2CCNCC2)n1 ... 5.6
CCCCCCc1cccc(N2CCNCC2)n1 ... 7.3
O=C1NC(=O)C(c2ccccc2)(c2ccccc2)N1 ... 8
